Taken from ChEMBL document CHEMBL1150432.

Reported Ki for target or system 5-hydroxytryptamine receptor 1B (Homo sapiens, UniProt P28222), by entry.

Input: // lookup Ki for O=C(Nc1ccc2[nH]cc(C3CCN(CCN4CCCCC4)CC3)c2c1)c1ccc(F)cc1
Output: > 1000 nM

Input: What about this compound? O=C(Nc1ccc2[nH]cc(C3CCN(CCCN4CCC(c5c[nH]c6ccc(NC(=O)c7ccc(F)cc7)cc56)CC4)CC3)c2c1)c1ccc(F)cc1
Output: > 10000 nM

Input: And for O=C(Nc1ccc2[nH]cc(C3CCN(Cc4ccccc4)CC3)c2c1)c1ccc(F)cc1 ?
Output: > 1000 nM

Input: Again, but for O=C(Nc1ccc2[nH]cc(C3CCN(CCO)CC3)c2c1)c1ccc(F)cc1
Output: > 1000 nM

###

# ASSAY TARGET: 5-hydroxytryptamine receptor 1D (Homo sapiens, UniProt P28221)
# Sequence (P28221 whole entry): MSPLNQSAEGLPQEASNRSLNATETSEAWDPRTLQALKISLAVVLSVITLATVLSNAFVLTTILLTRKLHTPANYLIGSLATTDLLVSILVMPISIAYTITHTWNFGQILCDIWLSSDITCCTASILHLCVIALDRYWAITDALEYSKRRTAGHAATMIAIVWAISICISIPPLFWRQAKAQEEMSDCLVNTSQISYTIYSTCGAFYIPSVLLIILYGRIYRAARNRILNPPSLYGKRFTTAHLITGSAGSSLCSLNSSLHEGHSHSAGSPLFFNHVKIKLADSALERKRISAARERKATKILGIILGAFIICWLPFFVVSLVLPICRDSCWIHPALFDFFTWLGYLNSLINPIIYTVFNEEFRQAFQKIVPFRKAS
pKi: −log10 of the molar value.
QUANTITY: pKi

Input: What pKi value was documented for this molecule, O=C(Nc1ccc2[nH]cc(C3CCN(Cc4ccccc4)CC3)c2c1)c1ccc(F)cc1 ?
Output: < 6.00

Input: Now the same for O=C(O)CCCCCCCCCN1CCC(c2c[nH]c3ccc(NC(=O)c4ccc(F)cc4)cc23)CC1
Output: < 6.00

Input: Subsequent entry: O=C(Nc1ccc2[nH]cc(C3CCN(CCN4CCCCC4)CC3)c2c1)c1ccc(F)cc1
Output: < 6.00
